# key: entry, value: GI50
test system: SF-268; experiment: NCI tumour cell line growth inhibition, 48 h
The source made the active and inactive calls. No stated cut-off is given here; in the data, active = GI50 up to about 1.1 µM and inactive = higher. Non-standard residues stand in square brackets, D forms with d. Residues, ends and D or L forms follow the SMILES beside them. *: point of attachment. Ac5c = NC1(C(=O)O)CCCC1; Boc = CC(C)(C)OC(=O)*; tBu = CC(C)(C)*

>  <molecule>
CSc1cc(Cl)c(C)cc1S(=O)(=O)NC(=O)NNc1ccc(C)cc1

>  <GI50>
> 100 µM (inactive)

$$$$
>  <molecule>
Nc1ccc(C2=Nc3ccccc3SC(c3ccccc3O)C2)cc1 (stereo not given)

>  <GI50>
33.7 µM (inactive)

$$$$
>  <molecule>
Cc1cn(C2CC(O)C(CO[Si](C)(C)C(C)(C)C)OC2OC(C)C)c(=O)[nH]c1=O (stereo not given)

>  <GI50>
51.3 µM (inactive)

$$$$
>  <molecule>
CC(OC(C)(C)C)C(NC(=O)C(CCCCNC(=O)OC(C)(C)C)NC(=O)C(Cc1c[nH]c2ccccc12)NC(=O)C(N)Cc1ccccc1)C(=O)NC(Cc1ccccc1)C(=O)NC1(C(=O)O)CCCC1 (stereo not given) (H-FWK(Boc)T(tBu)F[Ac5c]-OH; configuration not given here)

>  <GI50>
> 100 µM (inactive)

$$$$
>  <molecule>
CC(C)(C)OC(=O)N1CCc2c(n(C/C=C/c3ccccc3)[nH]c2=O)C1

>  <GI50>
> 100 µM (inactive)

$$$$
>  <molecule>
C=C(CN(C)C)C(=O)c1ccc(C)cc1C

>  <GI50>
15.3 µM (inactive)

$$$$
>  <molecule>
Clc1ccc(Nc2nn3c(CCCCCCCCc4nnc5sc(Nc6ccc(Cl)cc6)nn45)nnc3s2)cc1

>  <GI50>
> 100 µM (inactive)

$$$$
>  <molecule>
COC(=O)c1ccc(/C=N/c2ccc(S(N)(=O)=O)cc2)cc1

>  <GI50>
> 100 µM (inactive)

$$$$
>  <molecule>
N/C(=C\c1ccc(OCc2ccccc2)c(OCc2ccccc2)c1[N+](=O)[O-])C(=O)O

>  <GI50>
> 100 µM (inactive)

$$$$
>  <molecule>
COC1=CC(=O)C2C(C1=O)[C@@H]1c3ccccc3OC(C)(C)[C@H]21 (stereo not given in full)

>  <GI50>
29.6 µM (inactive)

$$$$
